system: LXRb:RXRa (NR concentration 270 nM, RXRa partner concentration 90 nM); experiment: PBM binding z-score (relative to random genomic background probes); higher = stronger binding; sequences stand for … in GC…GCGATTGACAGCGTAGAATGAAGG
Property: PBM binding z-score; scope: individual sequences
quantity-name: PBM binding z-score

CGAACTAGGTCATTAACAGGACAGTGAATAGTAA    1.88
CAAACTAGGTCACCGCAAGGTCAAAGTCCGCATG    5.42
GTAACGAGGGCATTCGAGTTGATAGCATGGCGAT    0.286
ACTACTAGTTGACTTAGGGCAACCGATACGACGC    0.0613
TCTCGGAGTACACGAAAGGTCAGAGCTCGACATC    3.2
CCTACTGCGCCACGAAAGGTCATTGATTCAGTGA    4.54
CCTACTGGGCCACGAAAGGTCATTTATTCAGTGA    4.6
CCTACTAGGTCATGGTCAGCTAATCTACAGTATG    2.06
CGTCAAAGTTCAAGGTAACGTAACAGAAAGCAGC    3.46
CTAGACAGGTGAGAAGGTAACTCAGCCTCGATTA    -0.171
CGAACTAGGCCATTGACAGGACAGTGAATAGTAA    -0.366
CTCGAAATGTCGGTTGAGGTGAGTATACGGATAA    -0.214

----------
system: FXR:RXRa (NR concentration 270 nM, RXRa partner concentration 90 nM); assay: PBM binding z-score (relative to random genomic background probes); higher = stronger binding; sequences stand for … in GC…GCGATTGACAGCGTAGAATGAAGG
Give class 1 when the value for PBM binding z-score is at least 0.6. Give class 0 when it is less.

CTGACTGGGGCATAAGGTTACCATAAGCCAGCCC    class 1
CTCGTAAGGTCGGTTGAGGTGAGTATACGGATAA    class 1
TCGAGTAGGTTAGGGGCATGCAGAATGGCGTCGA    class 0
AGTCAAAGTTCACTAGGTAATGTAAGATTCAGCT    class 1
CCTAGTTGGTCATGGTCACACACGCTATAGGTAC    class 0
TCTGCTAGGTCAGTTGGACAGCTAACGAGCTGCC    class 1
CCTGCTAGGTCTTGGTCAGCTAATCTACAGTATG    class 0
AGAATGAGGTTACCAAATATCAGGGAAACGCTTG    class 1
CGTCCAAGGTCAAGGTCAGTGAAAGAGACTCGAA    class 1
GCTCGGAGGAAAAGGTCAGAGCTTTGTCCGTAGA    class 1
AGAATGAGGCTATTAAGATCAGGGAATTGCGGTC    class 0

----------
Property: PBM binding z-score; scope: individual sequences
system: THRa:RXRa (NR concentration 90 nM, RXRa partner concentration 90 nM); assay: PBM binding z-score (relative to random genomic background probes); higher = stronger binding; sequences stand for … in GC…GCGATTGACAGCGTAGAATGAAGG
quantity-name: PBM binding z-score

GCTTGTAGATCAAGGTTAATAAAGACTAAGCTAA    1
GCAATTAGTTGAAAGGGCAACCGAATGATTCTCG    0.471
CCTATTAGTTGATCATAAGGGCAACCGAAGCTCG    1.69
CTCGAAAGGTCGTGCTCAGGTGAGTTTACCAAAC    3.84
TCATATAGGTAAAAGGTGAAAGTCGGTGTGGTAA    1.77
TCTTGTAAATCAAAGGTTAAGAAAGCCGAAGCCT    0.996
TAGCCTAGGTCAGAGCGGGCCAGTATACGCTATA    2.85
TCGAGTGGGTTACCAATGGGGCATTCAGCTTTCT    -0.369
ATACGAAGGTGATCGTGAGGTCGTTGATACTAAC    3.28
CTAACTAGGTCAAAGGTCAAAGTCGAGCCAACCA    4.84
GCTTGTAGATAAAGGTTAAGAAAGACTAAGCTAA    1
GCTCGGCGGACAAGGTCAGAGCTTTGTCCGTAGA    2.25

----------
test system: PPARg:RXRa 90nM:30nM, anti-RXR (NR concentration 90 nM, RXRa partner concentration 30 nM); assay: PBM binding z-score (relative to random genomic background probes); higher = stronger binding; sequences stand for … in GC…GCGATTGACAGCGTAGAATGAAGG
Give 1 when the value for PBM binding z-score is at least 2. Give -1 when it is less.

TCTCGGAGGACACTAAGGTCAGAGCTTTCCAGAG    -1
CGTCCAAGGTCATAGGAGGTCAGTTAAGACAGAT    1
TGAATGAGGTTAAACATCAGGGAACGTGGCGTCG    -1
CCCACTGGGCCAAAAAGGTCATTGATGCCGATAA    1
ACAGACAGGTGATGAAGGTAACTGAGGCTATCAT    -1
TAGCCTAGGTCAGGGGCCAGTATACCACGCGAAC    1
GCGACTGGGGCAAAGCTGGTTACCATAAGGTTGG    -1
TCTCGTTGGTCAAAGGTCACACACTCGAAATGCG    1
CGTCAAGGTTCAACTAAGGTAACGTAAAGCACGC    -1
TCATATAGGTAAATGCTAGGTGAAATTCCGATCT    1
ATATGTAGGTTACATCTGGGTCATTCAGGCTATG    1
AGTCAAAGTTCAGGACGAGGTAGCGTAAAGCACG    1
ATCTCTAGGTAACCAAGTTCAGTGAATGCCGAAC    -1
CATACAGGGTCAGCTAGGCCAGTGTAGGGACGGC    1
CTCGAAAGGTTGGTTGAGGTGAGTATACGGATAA    -1
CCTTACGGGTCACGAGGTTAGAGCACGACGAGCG    1
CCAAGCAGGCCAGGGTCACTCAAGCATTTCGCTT    -1
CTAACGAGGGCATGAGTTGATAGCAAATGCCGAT    -1
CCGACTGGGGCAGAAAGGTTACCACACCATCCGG    1
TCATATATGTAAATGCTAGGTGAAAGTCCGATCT    1
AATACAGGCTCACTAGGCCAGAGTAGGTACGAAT    -1
GCGACTGGGGCATCAGCATGTTACCATAACTTAA    -1
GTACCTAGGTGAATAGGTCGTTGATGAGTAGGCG    -1
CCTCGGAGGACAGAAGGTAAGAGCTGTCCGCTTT    -1
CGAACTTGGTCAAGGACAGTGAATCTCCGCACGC    -1
AGTCAAAGCTCAGGACGAGGTAACGTAAAGCACG    -1
CCTCACGGGTCAAGGTTATAGCACGGGTGGTACG    1
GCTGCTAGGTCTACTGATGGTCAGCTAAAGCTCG    -1
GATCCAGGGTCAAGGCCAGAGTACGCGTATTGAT    1
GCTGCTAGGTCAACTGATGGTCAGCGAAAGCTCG    1
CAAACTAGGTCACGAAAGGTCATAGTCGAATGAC    1
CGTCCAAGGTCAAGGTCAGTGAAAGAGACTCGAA    1
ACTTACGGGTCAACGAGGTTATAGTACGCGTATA    1
CCTAGTTGGTCAGGCGGTCACACACCGGATATGA    -1
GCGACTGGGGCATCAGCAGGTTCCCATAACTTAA    -1
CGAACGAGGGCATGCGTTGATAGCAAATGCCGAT    -1
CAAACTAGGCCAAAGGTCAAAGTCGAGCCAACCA    1
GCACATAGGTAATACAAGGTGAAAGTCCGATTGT    -1
CCTACTGGGACAAAAAGGTCATTGATGCCGATAA    1
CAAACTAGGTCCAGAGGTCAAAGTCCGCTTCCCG    1
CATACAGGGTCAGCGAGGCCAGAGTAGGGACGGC    1
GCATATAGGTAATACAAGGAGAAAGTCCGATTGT    -1
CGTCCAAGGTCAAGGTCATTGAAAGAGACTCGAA    1
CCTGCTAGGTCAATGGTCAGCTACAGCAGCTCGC    1
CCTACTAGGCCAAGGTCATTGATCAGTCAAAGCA    1
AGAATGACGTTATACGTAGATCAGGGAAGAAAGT    -1
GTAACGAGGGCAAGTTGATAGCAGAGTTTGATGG    -1
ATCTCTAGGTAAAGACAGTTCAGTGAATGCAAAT    -1
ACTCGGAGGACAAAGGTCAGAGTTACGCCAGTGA    1
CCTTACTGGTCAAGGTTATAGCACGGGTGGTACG    -1
ATCCAAAGGTCGACGAGGTGAGTATACACCGTTT    1

Source: the supplement of paper PMC6555819
